- PROTOCOL NOTES: Inhibition of recombinant human SSAO
READOUT NAME: pIC50
Give bare numbers, as −log10 of the molar value.

Worked cases, answers included:
• NC/C(=C\F)COc1ccccc1 = 7.72
• NCC(=CF)COc1ccccc1 = 8.22

What value of pIC50 has been recorded for this entry: Cc1ccccc1OC/C(=C/F)CN
6.54
